biological target: Aryl hydrocarbon receptor (Homo sapiens); experiment: AHR activator potency, dose response, cell-based, luminescence, luciferase reporter, human (AID 493060); conditions: Human cell line AHR-responsive luciferase reporter
pEC50: −log10 of the molar value.
measurement.type: pEC50

Example entries and their recorded answers appear below.
{"columns": ["chemical.string", "observed"],
 "data": [
  ["COc1ccccc1NC(=O)Nc1cccnc1", 5.83],
  ["Cc1ccc(Nc2ncccc2C(N)=O)cc1", 5.95],
  ["Cn1c(N)c(C(=O)Nc2ccccc2F)sc1=S", 6.12],
  ["Cc1c(-c2ccn[nH]2)cc(NC(=O)c2ccc(Cl)cc2)c(=O)n1N", 6.29],
  ["CC(=O)c1ccc(NC(=O)c2cc(Cl)nc3ccccc23)cc1", 6.01]
]}

[A] CCOc1ccc(-c2cc(C)n3nc(C(N)=O)cc3n2)cc1
[B] COC(=O)c1ccccc1NC(=O)Cn1ccnc1
Query block: When A and B are compared, which has the higher number for pEC50? I would appreciate it if you answered with the label of your choice.
Result block: A
(A: 5.87, B: 5.59)

[I] Cc1nc(N)nc(Nc2ccc(Cl)cc2)c1Br
[II] COc1ccccc1C(=O)Nc1ccc(N2CCCCC2)cc1
Query block: When I and II are compared, which has the higher number for pEC50? I would appreciate it if you answered with the label of your choice.
Result block: I
(I: 5.85, II: 5.53)

[a] CCOC(=O)Cc1cc(-c2ccc(O)cc2)nc2ccc3ccccc3c12
[b] Cn1c(C(=O)N2CCC(C(N)=O)CC2)cc2cc(Cl)ccc21
[c] Cc1csc(SCC(=O)Nc2ccc(Cl)cn2)n1
Query block: // sort entries: pEC50, high to low A ranking is expressed here by listing the labels in the requested order.
Result block: b, c, a
(b: 6.59, c: 6.17, a: 5.97)
